Every entry's value here was drawn from patent EP4772193A1.

TARGET_OF_ASSAY: T1, recombinant mouse soluble gpNMB (recombinant mouse gpNMB-FLAG-His) (mouse, UniProt Q99P91 23-502)
T1 sequence: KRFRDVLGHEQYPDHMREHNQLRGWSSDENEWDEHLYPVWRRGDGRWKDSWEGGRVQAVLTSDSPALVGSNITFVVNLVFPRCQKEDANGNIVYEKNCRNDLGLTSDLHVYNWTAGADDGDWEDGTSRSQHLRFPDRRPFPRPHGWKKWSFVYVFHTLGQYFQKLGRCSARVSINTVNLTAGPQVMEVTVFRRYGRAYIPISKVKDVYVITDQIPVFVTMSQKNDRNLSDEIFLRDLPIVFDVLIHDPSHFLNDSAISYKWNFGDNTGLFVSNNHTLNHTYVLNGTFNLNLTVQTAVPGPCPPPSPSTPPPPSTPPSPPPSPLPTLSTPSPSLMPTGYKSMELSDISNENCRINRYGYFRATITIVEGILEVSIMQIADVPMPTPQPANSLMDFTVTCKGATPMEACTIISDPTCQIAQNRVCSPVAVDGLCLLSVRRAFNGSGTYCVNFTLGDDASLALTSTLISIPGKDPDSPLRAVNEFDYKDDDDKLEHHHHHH
METHOD_DESCRIPTION: SPR, antibody 100 nM over captured gpNMB-FLAG-His, 25C
pKd: −log10 of the molar value.
Cut-off 8 on pKd, inclusive. At or above means 1.0; below means 0.0.

GPN15-2 (antibody, V domains shown, monoclonal with mouse IgG constant regions) VH: QVQLQQPGAELVKPGASVKMSCKASGYTFTNHNMHWVKQTPGQGLEWIGAFYTGNGDTSYNQKFKGKATLTADKSSSTAYIQLSSLTSEDSAVYYCARERYDGYYIAMDYWGQGTSVTVSS VL: QIVLTQSPAFMSVSPGEKVTMTCSASSSVYYMFWYQQKPRSSPKPWIYLTSKLASGVPARFSGSGSGTSYSVTISSMEAEDAATYYCQQWSSNPQWTFGGGTKLEIK : 1.0
GPN18-1 (antibody, V domains shown, monoclonal with mouse IgG constant regions) VH: QVTLKESGPGILQPSQTLSLTCSFSGFSLSTSVMGVGWIRQPSGKGLEWLADIWWDDDKDYNPSLKSRLTISKDTSKNQVFLKIASVDTADTATYYCARAYYSNYEYYGMDYWGQGTSVTVSS VL: DVLMTQTPLSLPVSLGDQASISCRSSQSIVHSNGNTYLEWYLQKPGQSPKLLIYKVSNRFSGVPDRFSGSGSGTDFTLKISRVEAEDLGVYYCFQGSHVPFTFGSGTKLEIK : 0.0
GPN18-7 (antibody, V domains shown, monoclonal with mouse IgG constant regions) VH: QVTLKESGPGILQPSQTLSLTCSFSGFSLSTSVMGVGWIRQPSGKGLEWLADIWWDDDKDYNPSLKSRLTISKDTSKNQVFLKIASVDTADTATYYCARAYYSNFEYYGMDYWGQGTSVTVSS VL: DVLMTQIPLSLPVSLGDQASISCRSSQTIVHSNGNTYLEWYLQKPGQSPKLLIYKVSNRFSGVPDRFSGSGSGTDFTLKISRVEAEDLGVYYCFQGSHVPFTFGSGTKLEIK : 0.0
GPN11-10 (antibody, V domains shown, monoclonal with mouse IgG constant regions) VH: QVNLLQSGAALVKPGASVRLSCKTSGYTFTDCYIHWVRQSHGKSLEWIGFINPNSGYTFYNEKFKSKATLTVAKSTNTAYMELSRLTSEDSATYFCTRGDYYTSNLYDWFAYWGQGTLVTVSS VL: DTVMTQSPASMSTSVGERVTVNCKASQTVGTVVAWFQQKPGQSPKRLIYWATNRHTGVPDRFTGSGFGRDFSLTISNVEAEDLAVYYCLQYGSVPPTFGGGTKLELK : 1.0
